Target Or Test System: Ba/F3 stable cells (Homo sapiens, UniProt P00533, DUP768-770, cells depend on it)
Construct: EC50 Ba/F3-EGFR D770-N771insSVD; other: Ba/F3-EGFR D770-N771insSVD cells, 72 h, CCK-8
Sequence (P00533 with tags, fused parts or gaps DUP768-770): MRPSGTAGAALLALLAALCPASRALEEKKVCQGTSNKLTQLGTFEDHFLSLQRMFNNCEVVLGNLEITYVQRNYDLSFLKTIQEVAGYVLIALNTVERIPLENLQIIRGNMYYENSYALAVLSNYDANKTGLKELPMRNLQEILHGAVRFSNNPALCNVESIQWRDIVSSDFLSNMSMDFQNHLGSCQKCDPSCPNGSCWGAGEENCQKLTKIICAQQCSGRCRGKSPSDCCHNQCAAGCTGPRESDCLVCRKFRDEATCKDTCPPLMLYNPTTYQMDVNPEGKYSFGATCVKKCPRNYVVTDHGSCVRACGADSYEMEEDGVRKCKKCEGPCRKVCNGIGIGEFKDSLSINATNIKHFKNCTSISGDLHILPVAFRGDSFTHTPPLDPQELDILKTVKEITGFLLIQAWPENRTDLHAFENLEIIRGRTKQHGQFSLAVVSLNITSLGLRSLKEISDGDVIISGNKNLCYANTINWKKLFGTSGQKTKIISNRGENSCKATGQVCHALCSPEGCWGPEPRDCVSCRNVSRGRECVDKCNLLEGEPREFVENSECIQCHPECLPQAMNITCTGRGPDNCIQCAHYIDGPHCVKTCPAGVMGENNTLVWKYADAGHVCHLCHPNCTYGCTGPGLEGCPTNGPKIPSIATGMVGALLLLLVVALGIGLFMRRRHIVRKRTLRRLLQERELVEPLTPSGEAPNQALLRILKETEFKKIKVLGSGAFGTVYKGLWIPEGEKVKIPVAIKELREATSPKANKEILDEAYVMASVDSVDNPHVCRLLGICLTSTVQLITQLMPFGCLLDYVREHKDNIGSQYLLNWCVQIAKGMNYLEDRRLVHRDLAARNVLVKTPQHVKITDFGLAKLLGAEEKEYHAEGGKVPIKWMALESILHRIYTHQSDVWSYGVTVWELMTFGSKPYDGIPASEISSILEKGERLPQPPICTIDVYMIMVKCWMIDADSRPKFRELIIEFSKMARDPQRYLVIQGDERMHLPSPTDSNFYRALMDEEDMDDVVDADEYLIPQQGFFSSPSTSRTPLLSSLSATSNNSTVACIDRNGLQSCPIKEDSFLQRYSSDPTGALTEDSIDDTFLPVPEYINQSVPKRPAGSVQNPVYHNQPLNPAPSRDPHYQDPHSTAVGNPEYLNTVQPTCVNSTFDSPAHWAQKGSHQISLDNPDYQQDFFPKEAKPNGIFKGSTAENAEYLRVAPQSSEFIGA
Experimental Details: EC50 assay: Ba/F3 stable cell proliferation (CCK-8, 72 h)
Measurement Parameters: Ba/F3-EGFR D770-N771insSVD cells
Procedure: 4,000 Ba/F3 stable cells/90 μL/well were plated onto 96-well cell culture plate (Grenier, Cat.No. 655180) and incubated at 37° C. with a humidified atmosphere of 5% CO2 for 2 h. Then the cells were treated with 10 μL compounds at serial titration. […] 10 μL the cell proliferation reagent CCK-8 (Dojindo, Cat.No. CK04 1000T) was added into each well and incubated the plate at 37° C. for 4 hours, the GD value was measured by SPECTRAmax plus (Molecular Devices) at 450 nm. […]
pEC50: −log10 of the molar value.
Observed Property: pEC50

In [3]: df
Out[3]:
                                   compound                     target_or_test_system  observed_property  value_measured
0  C=CC(=O)N1CCC(Oc2cc3c(NCc4ccc(Cl)cc4)ncnc3cc2OC)CC1 [Compound 108]  Ba/F3 stable cells (Homo sapiens, UniProt P00533, DUP768-770, cells depend on it)              pEC50          < 6.00
1  C#CC(=O)N1CCC(Oc2cc3c(Nc4ccc5ccccc5c4)ncnc3cc2OC)CC1 [Compound 53]  Ba/F3 stable cells (Homo sapiens, UniProt P00533, DUP768-770, cells depend on it)              pEC50          ≥ 6.70

Report pEC50 for C=CC(=O)N1C2CCCC1CC(Oc1cc3c(Nc4cccc5ccccc45)ncnc3cc1OC)C2 (centres unmarked) [Compound 178] tested on Ba/F3 stable cells (Homo sapiens, UniProt P00533, DUP768-770, cells depend on it). 6.00 to 6.70

Same read-out for C=C(F)C(=O)N1CC(c2cc3c(Nc4ccc(Cl)c(Cl)c4F)ncnc3cc2OC)C1 [Compound 38] ? < 6.00

Same read-out for C=CC(=O)N1CCC(Oc2cc3c(Nc4ccc5[nH]ccc5c4)ncnc3cc2OC)CC1 [Compound 169] ? 6.00 to 6.70

Same read-out for C=CC(=O)N1CC(c2cc3c(NCc4cccc(Cl)c4)ncnc3cc2OC)C1 [Compound 15] ? 6.00 to 6.70

Same read-out for C=CC(=O)N1CC(c2cc3c(Nc4ccc(Cl)c(Cl)c4F)ncnc3cc2O[C@H]2CCOC2)C1 [Compound 22] ? < 6.00

Same read-out for C=CC(=O)NC1CC(Oc2cc3c(Nc4ccc(F)c(Cl)c4)ncnc3cc2OC)C1 (centres unmarked) [Compound 85] ? < 6.00

Same read-out for C=CC(=O)NC1CC(Oc2cc3c(Nc4ccc(Cl)c(Cl)c4)ncnc3cc2OC)C1 (centres unmarked) [Compound 73] ? 6.00 to 6.70

Same read-out for C=CC(=O)N1CCC(c2cc3c(Nc4ccc(Cl)c(Cl)c4F)ncnc3cc2OC)CC1 [Compound 10] ? 6.00 to 6.70

Same read-out for C=CC(=O)N1CC(c2cc3c(Nc4ccc5ccccc5c4)ncnc3cc2OC)C1 [Compound 5] ? 6.00 to 6.70

Same read-out for C#CC(=O)N1CCCC(c2ccc3ncnc(Nc4ccc(Cl)c(Cl)c4F)c3c2)C1 (centres unmarked) [Compound 61] ? ≥ 6.70

Same read-out for COc1cc2ncnc(Nc3ccc(Cl)c(Cl)c3F)c2cc1C1CN(C#N)C1 [Compound 195] ? < 6.00

Same read-out for C=CC(=O)N1CCC(Oc2cc3c(NCc4ccc(Cl)c(Cl)c4)ncnc3cc2OC)CC1 [Compound 115] ? < 6.00

Same read-out for C=CC(=O)N1CC(c2ccc3ncnc(Nc4ccc(Cl)c(Cl)c4F)c3c2)C1 [Compound 8] ? 6.00 to 6.70

Same read-out for COc1cc2ncnc(Nc3ccc(Cl)c(Cl)c3F)c2cc1OC1CCCN(C#N)C1 (centres unmarked) [Compound 198] ? < 6.00

Same read-out for C=CC(=O)N1CCC(Oc2cc3c(NCc4cc(F)cc(Cl)c4)ncnc3cc2OC)CC1 [Compound 122] ? 6.00 to 6.70

The measurements presented in this section are drawn from patent US20250243171A1.
